Listing: Kd of selected binders
Molecular target: T1, Full length human CIB1 (calcium and integrin binding protein 1), N-terminal hexahistidine tag (human, UniProt Q99828 1-191)
T1 sequence (looked up): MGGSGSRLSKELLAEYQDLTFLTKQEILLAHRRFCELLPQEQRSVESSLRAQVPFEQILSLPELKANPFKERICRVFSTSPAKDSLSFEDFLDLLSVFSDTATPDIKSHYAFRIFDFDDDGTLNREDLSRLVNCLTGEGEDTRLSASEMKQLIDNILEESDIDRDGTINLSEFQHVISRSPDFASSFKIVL
Assay: ITC
Ends that are not written are not given here.
Measure: Kd (nM)

Binder | Data value
Ac-FWYGAMKALYG [Acetyl short (Ac-FWYGAMKALYG)] | 52.1
Ac-EDGGSFWYGAMKALYG [Acetyl long (Ac-EDGGSFWYGAMKALYG)] | 45
H-EDGGSFWYGAMKALYG-NH2 [UNC10245092 (NH2-EDGGSFWYGAMKALYG-amide)] | 29.4
